LC retention time overview
# PROTOCOL DESCRIPTION: RP, Thermo Scientific Acclaim RSLC 120 C18, 100 × 2.1 mm, 2.2 µm, 30 °C, 0.2 mL/min, estimated dead time 1.1 min; A: 90% water + 10% methanol + 0.01% formic acid + 5 mM ammonium formate, pH 3.61; B: methanol + 0.01% formic acid + 5 mM ammonium formate, pH 3.61; gradient (min/%B) 0/1 1/1 2/39 13/99.9 15/99.9 15.1/1 20.1/1
# CONDITION LABEL: stereoisomer not certain
The response must be a number in min with no trailing unit.

COMPOUND: CN(C)C(=O)Oc1cc(OC(=O)N(C)C)cc(C(O)CNC(C)(C)C)c1 (centres undefined)
LC retention time [min]: 5.16
//
COMPOUND: Nc1c(Cl)c(Cl)nc(C(=O)O)c1Cl
LC retention time [min]: 3.56

Input: I have this compound here, `C=C(c1ccc(C(=O)O)cc1)c1cc2c(cc1C)C(C)(C)CCC2(C)C` , and I need its recorded LC retention time.
Output: 14.1

Input: Param item = C#CC1(O)C=CC2C3CCC4=CC(=O)CCC4C3CCC21CC (centres undefined) ; retrieve measured LC retention time.
Output: 9.46

Input: For the compound COc1cnc(NS(=O)(=O)c2ccc(N)cc2)nc1 [Sulfameter (sulfumetin)] , what LC retention time is on record?
Output: 4.18

Input: Entry `CN(C)C(CSS(=O)(=O)c1ccccc1)CSS(=O)(=O)c1ccccc1` has what LC retention time?
Output: 9.6

Input: Look up LC retention time for this compound: CCOP(=O)(NC(C)C)Oc1ccc(SC)c(C)c1 (centres undefined)
Output: 10.4

Input: GET /values?readout=LC retention time&item= `Cc1cccc(C)c1N(Cn1cccn1)C(=O)CCl`
Output: 8.11

Input: Could you tell me which LC retention time is on file for `CCNC(=O)NC(=O)C(C#N)=NOC` ?
Output: 5.6
